Test system: HCT-116
Protocol: cells
Assay type: functional, cell-based
Condition details: Homo sapiens, HCT-116, 48 h
Quantity name: EC50 (µM)

Solved cases below.
Cc1ccc(OCCN(Cc2ccccc2)Cc2ccc(/C=C/C(=O)NO)o2)cc1 | 14.8
O=C(/C=C/c1ccc(CN(CCCOc2ccccc2)CCc2ccc3c(c2)OCO3)o1)NO | 37.2
CCCCN(Cc1ccccc1)Cc1ccc(/C=C/C(=O)NO)o1 | 18.3
O=C(/C=C/c1ccc(CN(CCO)Cc2ccc(-c3ccccc3)cc2)o1)NO | 4.02
O=C(/C=C/c1ccc(CN(CCCOc2ccccc2)Cc2ccc(-c3ccccc3)cc2)o1)NO | 2.05
CCN(Cc1ccc(-c2ccccc2)cc1)Cc1ccc(/C=C/C(=O)NO)o1 | 1.84

(1) Cc1ccc(OCCN(Cc2ccc(-c3ccccc3)cc2)Cc2ccc(/C=C/C(=O)NO)o2)cc1
(2) O=C(/C=C/c1ccc(CN(CCc2ccc3c(c2)OCO3)Cc2ccccc2)o1)NO
(3) O=C(/C=C/c1ccc(CN(CCOc2ccccc2)CCc2ccc3c(c2)OCO3)o1)NO
(4) CCCCN(CCc1ccc2c(c1)OCO2)Cc1ccc(/C=C/C(=O)NO)o1
(5) CC(C)N(Cc1ccc(-c2ccccc2)cc1)Cc1ccc(/C=C/C(=O)NO)o1
Lookup: Sort ascending by EC50. # list labels per requested ordering
Found: 5, 1, 4, 3, 2
(5: 2.74 µM, 1: 6.93 µM, 4: 17 µM, 3: 30.6 µM, 2: 91.4 µM)

* * *

Measured target: Histone deacetylase 4 (Homo sapiens)
Sequence (P56524 whole entry, the tested form may be a part): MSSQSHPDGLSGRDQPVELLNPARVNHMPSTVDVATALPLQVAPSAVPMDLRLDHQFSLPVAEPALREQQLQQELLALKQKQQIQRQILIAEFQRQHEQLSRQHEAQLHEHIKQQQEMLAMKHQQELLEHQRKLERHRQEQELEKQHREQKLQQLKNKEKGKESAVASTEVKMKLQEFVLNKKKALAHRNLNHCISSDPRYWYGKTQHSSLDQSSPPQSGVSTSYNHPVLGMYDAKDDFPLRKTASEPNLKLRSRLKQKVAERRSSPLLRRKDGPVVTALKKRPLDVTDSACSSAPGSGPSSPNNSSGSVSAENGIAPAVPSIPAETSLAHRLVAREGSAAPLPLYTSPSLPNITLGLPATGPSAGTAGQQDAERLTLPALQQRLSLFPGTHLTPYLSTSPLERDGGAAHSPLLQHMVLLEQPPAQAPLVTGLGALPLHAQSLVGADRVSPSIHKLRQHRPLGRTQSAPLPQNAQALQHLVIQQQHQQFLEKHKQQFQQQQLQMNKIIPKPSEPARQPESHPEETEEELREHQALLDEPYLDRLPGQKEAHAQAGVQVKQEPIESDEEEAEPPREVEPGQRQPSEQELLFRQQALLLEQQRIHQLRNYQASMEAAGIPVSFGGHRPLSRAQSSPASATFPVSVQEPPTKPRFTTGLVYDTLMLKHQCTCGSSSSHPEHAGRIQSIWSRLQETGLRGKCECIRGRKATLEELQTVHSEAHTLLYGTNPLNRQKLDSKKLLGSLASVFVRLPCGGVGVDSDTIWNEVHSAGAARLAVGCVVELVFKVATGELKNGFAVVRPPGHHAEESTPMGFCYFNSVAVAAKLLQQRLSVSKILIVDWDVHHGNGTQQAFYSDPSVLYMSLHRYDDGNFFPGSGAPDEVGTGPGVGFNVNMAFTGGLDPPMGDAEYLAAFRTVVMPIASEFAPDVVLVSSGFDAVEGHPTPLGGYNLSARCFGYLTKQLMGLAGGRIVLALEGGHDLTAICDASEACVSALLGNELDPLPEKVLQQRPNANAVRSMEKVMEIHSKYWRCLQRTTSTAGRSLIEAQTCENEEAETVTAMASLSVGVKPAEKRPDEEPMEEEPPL
Protocol: Inhibition of human recombinant HDAC4 using p53 residues 379-382 (RHKKAc) as substrate
Quantity name: IC50 (µM)

Solved cases below.
CCN(Cc1ccccc1)Cc1ccc(/C=C/C(=O)NO)o1 | 10.7
O=C(/C=C/c1ccc(CN(CCOc2ccccc2)Cc2ccccc2)o1)NO | 50.6
CC(C)CN(Cc1ccccc1)Cc1ccc(/C=C/C(=O)NO)o1 | 12.3
O=C(/C=C/c1ccc(CN(CCO)Cc2ccccc2)o1)NO | 11.3
CCN(CCc1ccc2c(c1)OCO2)Cc1ccc(/C=C/C(=O)NO)o1 | 20

(I) CCN(Cc1ccc(-c2ccccc2)cc1)Cc1ccc(/C=C/C(=O)NO)o1
(II) O=C(/C=C/c1ccc(CN(CCCOc2ccccc2)Cc2ccccc2)o1)NO
Lookup: # query: argmin of IC50 over I and II Indicate your choice by writing its label.
Found: I

(I) CCCN(Cc1ccccc1)Cc1ccc(/C=C/C(=O)NO)o1
(II) CC(C)N(Cc1ccccc1)Cc1ccc(/C=C/C(=O)NO)o1
Lookup: Which record would sort first by descending IC50, I or II ? Indicate your choice by writing its label.
Found: I

(1) Cc1ccc(OCCCN(Cc2ccccc2)Cc2ccc(/C=C/C(=O)NO)o2)cc1
(2) Cc1ccc(OCCN(Cc2ccccc2)Cc2ccc(/C=C/C(=O)NO)o2)cc1
Lookup: Which record would sort first by descending IC50, 1 or 2 ? Indicate your choice by writing its label.
Found: 2

* * *

Protocol: Partition coefficient, log D of the compound at pH 7.4 by Avdeef-Tsinman potentiometric titration method
Type: physicochemical
Condition details: octanol/water
Quantity name: logD

CCCN(Cc1ccccc1)Cc1ccc(/C=C/C(=O)NO)o1 | 2.54
O=C(/C=C/c1ccc(CN(CCO)Cc2ccc(-c3ccccc3)cc2)o1)NO | 1.8
CCN(Cc1ccccc1)Cc1ccc(/C=C/C(=O)NO)o1 | 1.95

(a) CCCCN(Cc1ccccc1)Cc1ccc(/C=C/C(=O)NO)o1
(b) O=C(/C=C/c1ccc(CN(CCO)Cc2ccccc2)o1)NO
(c) CCCCCCCCN(Cc1ccccc1)Cc1ccc(/C=C/C(=O)NO)o1
Lookup: Sort ascending by logD. # list labels per requested ordering
Found: b, a, c
(b: 1.62, a: 2.97, c: 5.28)
